Origin of values: patent US6326395A

- Test system: Candida albicans
- Test description: in vitro antifungal susceptibility testing (MIC, MFC; broth macrodilution), Tables 1-7
- Assay type: cell-based
- Experimental context: 48 h, read-out: MIC80 (Minimum inhibitory concentration 80%)
We begin with a simple list: items and their reported MIC.
Give just the numeric value; µg/mL need not be written.

Compound	Study system	MIC [µg/mL]
CN1CCN(c2ccc3nc(-c4ccc5nc(-c6ccc(O)cc6)[nH]c5c4)[nH]c3c2)CC1	Candida albicans	25
N=C(N)c1ccc(NCCCNc2ccc(C(=N)N)cc2[N+](=O)[O-])c([N+](=O)[O-])c1	Candida albicans	100
OC(Cn1cncn1)(Cn1cncn1)c1ccc(F)cc1F [Fluconazole, reference compound]	Candida albicans	0.25

Now examine the next entry.
input: Consider the compound N=C(N)c1ccc(OCCCCCOc2ccc(C(=N)N)cc2)cc1 [Pentamidine, reference compound] . State its measured MIC.
output: 0.78
